# Measurement Notes: Volatility of perfuming compounds in air
# Format: physicochemical
# Settings: Table 5, perfuming compounds having a green note
Reported Property: Volatility
// return the numeric value with its unit appended

Worked cases, answers included:
| Compound | Volatility |
| --- | --- |
| CCC(C)(O)CCCC(C)C (racemic) | 421.15 μg/l air |
| c1ccc(CCCc2ccccn2)cc1 [2-(3-PHENYLPROPYL)PYRIDINE] | 3.83 μg/l air |
| CCCCCCC=O [HEPTANAL] | 22184.00 μg/l air |

GET /value?item= CCCc1ccc2c(c1)OCC(=O)CO2 [7-PROPYL-2H,4H-1,5-BENZODIOXEPIN-3-ONE] &field=Volatility returns 4.85 μg/l air

Record C=CC1(C)CCCC(C)(C)O1 (racemic) . Reported Volatility: 23116.66 μg/l air

Lab note: measured Volatility of CC(C)c1cccc(C(C)CC=O)c1 (racemic) [(+−)-3-(3-ISOPROPYL-1-PHENYL)BUTANAL] was 14.74 μg/l air
